- System: VDR:RXRa (NR concentration 270 nM, RXRa partner concentration 90 nM)
- assay-notes: PBM binding z-score (relative to random genomic background probes); higher = stronger binding; sequences stand for … in GC…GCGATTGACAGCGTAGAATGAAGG
property-name: PBM binding z-score
Answers are plain numbers.

Entry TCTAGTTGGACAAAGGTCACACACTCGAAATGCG : reported PBM binding z-score = ?
5.09

What does the record list as PBM binding z-score for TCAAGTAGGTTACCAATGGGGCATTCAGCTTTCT ?
0.549

I would be grateful if you could provide PBM binding z-score for each of the following entries.
1. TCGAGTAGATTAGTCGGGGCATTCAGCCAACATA
2. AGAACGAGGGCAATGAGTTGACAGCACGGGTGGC
3. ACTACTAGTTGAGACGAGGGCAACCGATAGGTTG
4. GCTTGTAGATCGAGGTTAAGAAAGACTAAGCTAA

1. -0.0689
2. 5.03
3. 0.46
4. 0.413

I'm hoping you can list PBM binding z-score for every sequence here, please.
1. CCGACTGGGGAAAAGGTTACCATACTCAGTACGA
2. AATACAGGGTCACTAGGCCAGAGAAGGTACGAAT
3. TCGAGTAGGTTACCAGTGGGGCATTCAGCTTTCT
4. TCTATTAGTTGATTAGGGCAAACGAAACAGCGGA
5. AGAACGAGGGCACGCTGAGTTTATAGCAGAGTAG

0.397
4.08
0.134
0.637
3.94

// for each sequence below, give its PBM binding z-score
1. ATCCAAAGGTCGACGAGGTGAGTATACACCGTTT
2. ATCTCTATGTAACCAAGTTCAGTGAATGCCGAAC
3. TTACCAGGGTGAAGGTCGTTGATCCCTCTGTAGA
4. CAAACTAGGCCAAAGGTCAAAGTCGAGCCAACCA

1: 5.23; 2: 2.22; 3: 1.65; 4: 4.89

Could you tell me PBM binding z-score for each of these sequences? They are listed below.
1. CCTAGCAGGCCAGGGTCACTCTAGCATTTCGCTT
2. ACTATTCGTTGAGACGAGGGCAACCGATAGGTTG
3. GCGACTGGGGCCTCAGCAGGTTACCATAACTTAA
4. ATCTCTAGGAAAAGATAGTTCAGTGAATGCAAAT
5. GCTAGCAGGCGATTTGGGTCACTCAATGACGGGC

[2.45, 0.454, -0.529, 0.581, -0.205]
